# log10 TGI annotations
- Tested on: U251 CNS
- Assay Explanation: NCI tumour cell line growth inhibition, 48 h
Measure Name: log10 TGI (log10 of the value in µM)

Compound	Tested System	log10 TGI
COc1cc(/C=C/C(=O)CC(=O)/C=C/c2ccc(OC(=O)CCNC34CC5CC(CC(C5)C3)C4)c(OC)c2)ccc1OC(=O)CCNC12CC3CC(CC(C3)C1)C2	U251 CNS	1.08
O=C1CC(N2C(=O)/C(=C/C(Cl)=C\c3ccc([N+](=O)[O-])cc3)SC2=S)C(=O)N1c1ccc(Cl)cc1 (centres undefined)	U251 CNS	0.39
CC1=CC[C@@]2(C)[C@@H]([C@@H]1C)[C@H]1CC[C@@H]3[C@@]4(C)CC[C@H](O)C(C)(C)[C@@H]4CC[C@@]3(C)[C@]1(C)C[C@@H]2O	U251 CNS	1.36
O=c1oc2ccccc2c(O)c1C(c1ccc2ccccc2c1)c1c(O)c2ccccc2oc1=O	U251 CNS	1.59
N#C/C(=C\c1ccc(Cl)cc1)n1nnc2cc(F)c(F)cc21	U251 CNS	0.49
Cc1nc2c(n1CCCl)C(=O)c1ccccc1C2=O	U251 CNS	1.80
c1ccc2c(OCC3CO3)ccc(OCC3CO3)c2c1 (centres undefined)	U251 CNS	0.80
O=C1C(Br)=C(c2ccccc2)C(c2ccccc2)=C1c1ccccc1	U251 CNS	0.99
CN1CCN(CCCOc2ccc3ncnc(Nc4ccc(Oc5cccc(C(F)(F)F)c5)c(Cl)c4)c3c2)CC1	U251 CNS	0.51
CCC/C(Cl)=N\OC(=O)Nc1ccc(Br)cc1	U251 CNS	1.51
CCC[CH2][Sn]([CH2]CCC)([O]C(=O)c1cccc(F)c1F)[O][Sn]([CH2]CCC)([CH2]CCC)[O]C(=O)c1cccc(F)c1F	U251 CNS	-0.35
CCN(CC)CCN1CCN=c2c3cc(OC)ccc3n3cnc4ccc1c2c43	U251 CNS	0.44
O=C(CCc1ccc(O)c(O)c1)c1ccc(O)c(O)c1O	U251 CNS	1.80
Cc1ccc(-c2nc3nc(-c4ccc(Cl)cc4)nc(N4CCCNCC4)c3o2)cc1	U251 CNS	0.55
COc1ccc2c(c1)C(=O)c1c-2c(N2CCN(C(=O)CN(C)C)CC2)nc2ccccc12	U251 CNS	1.49
